Tested on: SK-MEL-5 melanoma
Assay: NCI tumour cell line growth inhibition, 48 h
Listing of entries alongside the reported GI50.
READOUT LABEL: GI50

• CCOCNc1ccc(N2C(=O)/C(=C/c3ccc(N(CC)CC)cc3)N=C2c2ccccc2)cc1 = 22.9 µM
• COc1ccc2cc(-c3c(-c4ccncc4)nc(-c4ccc(S(C)=O)cc4C)n3C)ccc2c1 (stereo not given) = 7.58 µM
• CCCn1cnc2c(SCc3ccccc3)nc(N)nc21 = 21.2 µM
• Cn1cnc([N+](=O)[O-])c1Sc1nc(N)nc2nc[nH]c12 = 3.89 µM
• COc1cc2cc(Oc3ccc(NC(=O)c4cccc5c4OCCO5)cc3)c(C)nc2cc1OC = 2.92 µM

###

System: NCI-H522 lung
Assay: NCI tumour cell line growth inhibition, 48 h
Listing of entries alongside the reported TGI.
READOUT LABEL: TGI

• CC1(C)COC(c2c(-c3ccccc3)noc2CS(=O)c2ccccc2)=N1 (stereo not drawn) = > 100 µM
• NC(=O)C1=CC2C3C=CC2(O)C(=O)OC3O1 (stereo not drawn) = 4.31 µM
• CCCCCCCCCCCCCCCCS(=O)(=O)c1ccc(NN)cc1 = > 10 µM
• Cc1n(Cc2ccc3ccccc3c2)c(Cl)c(Cl)[n+]1Cc1ccc2ccccc2c1 = 3.9 µM
• N#CCCC1(CCC#N)CCCCCCC(CCC#N)(CCC#N)C(O)C1O (stereo not drawn) = > 100 µM
• CC1(C)[C@@H]2CC[C@@]1(C)[C@H](O)[C@@H]2SCc1ccccc1 = 29.3 µM
• O=P(O)(O)CN1CCNCCN(CP(=O)(O)O)CCNCC1 = > 100 µM
• CC12CC(C/C1=N/O)C(C)(C)C2 (stereo not drawn) = > 100 µM
• O=C1CC2(CCNCC2)C(=O)N1N1CCOCC1 = > 100 µM
• CC(C)(C)CC(C)(C)c1ccc(OCCOCC[N+](C)(C)Cc2ccccc2)cc1 = 6.42 µM
• CCN(CC)CCOc1ccc(/C=C2\CC3C4CC=C5C[C@@H](OC(C)=O)CC[C@]5(C)C4CC[C@]3(C)C2=O)cc1OC (stereo partly drawn) = 33.1 µM
• COC(=O)c1c(OC)cc2cc3c(c(O)c2c1C)C(=O)C1(O)C(=O)C=C(OC)C(OC(=O)CC(C)N)=C1C3=O (stereo not drawn) = > 100 µM
• CC(C)(C)OC(=O)N1CCc2c(n(C/C=C/c3ccccc3)[nH]c2=O)C1 = > 100 µM

###

Listing of entries alongside the reported TGI.
System: SF-295 CNS
Test: NCI tumour cell line growth inhibition, 48 h
READOUT LABEL: TGI (µM)

• CN(C)CCCC1(c2ccc(F)cc2)OCc2cc(-c3cncc4ccccc34)ccc21 (stereo not drawn) = 4.2
• O=C1C=C(N2CCN(c3ccccn3)CC2)C(=O)c2c(O)ccc(O)c21 = 51.5
• C/C(=C\Cc1cc(O)ccc1O)CCc1c(C)cc(O)c(C=O)c1C = 79
• CCOc1ccc(-c2oc(/C=N/NS(=O)(=O)c3ccc(C)cc3)c([N+](=O)[O-])c2-c2ccc(OCC)cc2)cc1 = 38.4
• OC(c1cc(-c2ccccc2)nc2c1ccc1ccccc12)C1CCCCN1 (stereo not drawn) = 3.44
• CC(C)(C)CC(C)(C)c1ccc(OCCOCC[N+](C)(C)Cc2ccccc2)cc1 = 28.4
• Cc1cc(NC(=O)NC(=O)c2ccccc2N(C)C)ccc1Oc1ncc(Br)cn1 = 21.8
• C=CC(=O)Nc1cccc(Nc2nc(Nc3ccc(OCCOC(F)F)cc3)ncc2F)c1 = 83.4
• Nc1ncc(/C=N/O)c(NCC2(CO)CC(CCc3ccccc3)C2)n1 (stereo not drawn) = 22.7
• NC(=O)c1cc(I)ccc1NC(=O)COc1ccccc1 = 3.39
• CCN(CC)CCOc1ccc(/C=C2\CC3C4CC=C5C[C@@H](OC(C)=O)CC[C@]5(C)C4CC[C@]3(C)C2=O)cc1OC (stereo partly drawn) = 3.94
• CC1(C)C2CCC13C(=O)C1OC3(C2)C2C(=O)c3c(O)cccc3C(=O)C12 (stereo not drawn) = 0.442
• O=C(Cc1ccc(/C=C/C(=O)c2ncc[nH]2)cc1)Nc1ccc(C(F)(F)F)cc1 = 9.3
• CC(C)=CCC[C@@H](C)c1c2[nH]c3ccccc3sc-2c(C)c(=O)c1=O = 40.6
• CC[C@@]1(O)C(=O)OCc2c1cc1n(c2=O)Cc2cc3c(N)cccc3nc2-1 = 2.37
• NC(=O)C(=O)n1ncc(Cl)c(Cl)c1=O = 20.3
• COc1ccc(-c2cc(/C=C/C(=O)c3cc(OC)c(OC)c(OC)c3)[nH]n2)cc1OC = 4.26

###

Test system: MDA-N
Assay: NCI tumour cell line growth inhibition, 48 h
Listing of entries alongside the reported TGI.
READOUT LABEL: TGI

* COc1cc(O)c(C(C)=O)c(O)c1 | > 100 µM
* CC(C)CCCC(C)[C@H]1CC[C@H]2N=C(Nc3ccccc3)CCC[C@]12C (some centres undefined) | 10.9 µM
* CNc1ccc(S(=O)Nc2ccccc2)cc1 (centres undefined) | > 100 µM
* CC1(C)CCC2(C(=O)OC3OC(CO)C(O)C(O)C3O)CCC3(CO)C(=CCC4C5(C)CC(O)C(O)C(C)(C(=O)OC6OC(CO)C(O)C(O)C6O)C5CCC43C)C2C1 (centres undefined) | > 100 µM

###

Listing of entries alongside the reported log10 TGI.
Tested on: NCI-H460 lung
Assay: NCI tumour cell line growth inhibition, 48 h
READOUT LABEL: log10 TGI (log10 of the value in µM)

- Cc1c(C(=O)OCc2ccccc2)[n+](=O)c2cc(F)c(F)cc2n1[O-]: 0.82
- CC1=C2C(=O)c3ccccc3C(=O)[C@H]2C[C@@H](N2CCCCCC2=O)O1: 1.52
- Nc1ncnc2c1c(-c1ccc(Oc3ccccc3)cc1)nn2C[C@@H]1SSC[C@@H]1O: -1.09
- COc1ccc(/C=C/C(=O)C(C)(C)Br)cc1: 1.68
- C=C(CNCCc1ccc(O)cc1)[C@@H]1CC[C@]2(CO)CC[C@]3(C)[C@H](CC[C@@H]4[C@@]5(C)CCC(N)C(C)(C)[C@@H]5CC[C@]43C)[C@@H]12 (some centres undefined): 0.49

###

System: T-47D breast
Test: NCI tumour cell line growth inhibition, 48 h
Listing of entries alongside the reported TGI.
READOUT LABEL: TGI (µM)

• CC12CC(c3ccccc3O1)C(C(=O)Nc1cccc(F)c1)C(=O)N2 (centres undefined) = 89.2
• NC(=O)C1=CC2C3C=CC2(O)C(=O)OC3O1 (centres undefined) = 15.1
• C=C(CNCCc1ccc(O)cc1)[C@@H]1CC[C@]2(CO)CC[C@]3(C)[C@H](CC[C@@H]4[C@@]5(C)CCC(N)C(C)(C)[C@@H]5CC[C@]43C)[C@@H]12 (some centres undefined) = 3.58
• CN(C)C/C=C/C(=O)Nc1ccc(C(=O)N2CCC[C@@H](Nc3ncc(Cl)c(-c4c[nH]c5ccccc45)n3)C2)cc1 = 4.27
• O=C(Nc1ccc(Cl)cc1)Nc1ccccc1CNc1nc(Nc2ccc(OCCN3CCCC3)cc2)ncc1Cl = 18
• C1=C2CNCC3=Cc4ccc5ccccc5c4OC23Oc2c1ccc1ccccc21 = 23.2
• COc1ccc(C(=O)c2ccc(-n3cc(/C=C/[N+](=O)[O-])c4ccccc43)cc2)cc1 = 6.41
• COC(=O)C(NC(=O)CSc1nnc(COc2ccc(Cl)cc2)n1-c1ccccc1)C(C)C (centres undefined) = 70.6
• O=C1OI(C#Cc2ccccc2)c2ccccc21 = 10.8
• Nc1ncc(/C=N/O)c(NCC2(CO)CC(CCc3ccccc3)C2)n1 (centres undefined) = 17.2
• COc1ccccc1/C=C\C(=O)c1ccccc1 = 20
• CNc1ccc(S(=O)Nc2ccccc2)cc1 (centres undefined) = 49.5
• C[C@@H]1C/C=C\C(=O)O[C@H](/C=C/C#C/C=C/C(C)(C)[C@@H](O)c2cccc(O)c2Br)[C@@H](C)/C=C/[C@H](C)C[C@H](OC(N)=O)C1 = 22.9
• C=C[C@@](C)(/C=C/c1ccc(O)cc1)CCC=C(C)C = 28.7

###

Listing of entries alongside the reported TGI.
Test system: SK-MEL-28 melanoma
Assay: NCI tumour cell line growth inhibition, 48 h
READOUT LABEL: TGI

- COC(=O)CC(NC(=O)OCc1ccccc1)C(C(=O)OCc1ccccc1)C1(C)OCCO1 (centres undefined): > 100 µM
- CCN(CC)CCN(C)CCc1ccc(Br)cc1: > 100 µM
- COC(=O)[C@H](Cc1ccccc1)NC(=O)c1csc([C@@H](C[C@H](C(C)C)N(C)C(=O)[C@@H](NC(=O)[C@H]2CCCN2C)C2CC2)OC(C)=O)n1: > 33.3 µM
- Cc1cc(=O)oc2cc(OCCn3c(C)nn(-c4ccc(Cl)cc4)c3=O)ccc12: > 100 µM
- CC(=O)CC1(C)OC(N)=C(C#N)C1(C#N)C#N (centres undefined): > 100 µM
- CCCCCCCCCCCCCCCCOCC(Cl)COP(=O)(O)OP(=O)(O)OCC1OC(n2cnc3c(N)ncnc32)C(O)C1O (centres undefined): > 100 µM
- COc1cc2cc(Oc3ccc(NC(=O)c4cccc5c4OCCO5)cc3)c(C)nc2cc1OC: > 100 µM
- CCN(CC)CCCCC1CCN(CC(=O)N2c3ccccc3NC(=O)CC2C)CC1 (centres undefined): > 100 µM
- COc1ccc(-c2c3ccccc3c(-c3ccc(OCCCCCBr)cc3)c3ccccc23)cc1: > 100 µM
- Fc1cc(-c2nnc3n2N=C(c2ccc(Cl)cc2Cl)CS3)c(Cl)cc1Cl: > 100 µM
- O=C(Nc1ccc(Cl)cc1)Nc1ccccc1CNc1nc(Nc2ccc(OCCN3CCCC3)cc2)ncc1Cl: 1.58 µM
- Nc1ccn([C@@H]2C(F)=C(CO)[C@@H](O)[C@H]2O)c(=O)n1: > 100 µM
- O=C(c1ccco1)C1CC(c2ccc3ccccc3c2O)=NN1c1ccc([N+](=O)[O-])cc1[N+](=O)[O-] (centres undefined): > 100 µM
- COc1cc(-n2cc(-c3cc(O)c(C/C=C(\C)CCC=C(C)C)c(O)c3)nn2)cc2c1O[C@]1(C)CC[C@@H](O)C(C)(C)[C@H]1C2: 27.6 µM
- O=C1CSC2(CC(/C=C/c3ccccc3Br)=NN2c2cccc(S(=O)(=O)O)c2)N1c1nc2ccccc2s1 (centres undefined): > 100 µM
- COc1ccc(-c2nc(-c3cnccn3)n(C3OC(CO)C(O)C(O)C3O)n2)cc1 (centres undefined): > 100 µM
- O=C(O)C1C2C=CC(O2)C1C(=O)Nc1ncccn1 (centres undefined): > 100 µM
- COc1ccc(/C=C(/C(=O)n2cnnn2)c2cc(OC)c(OC)c(OC)c2)cc1: > 100 µM
- Fc1c[c-]c(-c2ccccn2)c(F)c1.[CH3-].[Pt+2].c1ccc(P(C[PH+](c2ccccc2)c2ccccc2)c2ccccc2)cc1: 1.52 µM
